- TARGET OR TEST SYSTEM: SUMO-conjugating enzyme UBC9 (Homo sapiens) (UniProt P63279)
- Sequence (P63279 whole entry, looked up): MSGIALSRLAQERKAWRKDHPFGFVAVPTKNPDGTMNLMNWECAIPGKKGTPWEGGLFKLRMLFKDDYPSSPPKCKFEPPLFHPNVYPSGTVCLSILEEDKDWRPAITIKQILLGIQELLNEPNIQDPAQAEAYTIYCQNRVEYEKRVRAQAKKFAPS
- METHOD: blockers of UBC9-mediated SUMO conjugation – biochemical, AlphaScreen, SUMOylation inhibitor project, confirmation (AID 2018)
- CONDITION NOTES: AlphaScreen in vitro SUMOylation assay; at 35 µM
About 600 (50%) of roughly 1,200 compounds were called active. No stated cut-off is given here; in the data, active means inhibition above about 42%; inactive means the rest. The set was probably picked from earlier hits. The list shows a part of the results. Results with a measured potency or affinity are listed apart.
Permitted responses: true (1) for active, false (0) for inactive

These solved cases illustrate the format of a correct answer.
COc1ccc2oc(=O)c(/C(C)=N/NC(=O)c3ccncc3)cc2c1	false (0)
Cc1cc[n+](-c2[nH]c(=O)sc2/C=N/N=C(\[O-])c2ccncc2)cc1	false (0)
COc1ccc(-n2c(N)c(C(=O)NCc3ccco3)c3nc4ccccc4nc32)cc1OC	false (0)

QUERY: How was CCN(CC)C(=O)c1sc2nc(-c3ccncc3)[nH]c(=O)c2c1C classified in this test?
RESULT: false (0)

QUERY: How was N#CC1=C(N)N2C(=C(C#N)C1c1ccc(Br)cc1)Nc1ccccc12 (stereo unspecified) classified in this test?
RESULT: false (0)

QUERY: How was CN(c1ccccc1)c1cc(=O)[nH]c(=O)[nH]1 classified in this test?
RESULT: false (0)

QUERY: How was CC1=CC2(O)OCCN(CCO)C2=CC1=O (stereo unspecified) classified in this test?
RESULT: false (0)

QUERY: How was Oc1ccc2ccccc2c1C=Nc1ccc(Cl)cn1 classified in this test?
RESULT: false (0)

QUERY: How was Fc1ccc(-c2nc3cnccn3c2NC2CCCC2)cc1 classified in this test?
RESULT: false (0)

QUERY: How was Oc1ccc(C=Nc2cccc3ccccc23)c(O)c1 classified in this test?
RESULT: true (1)

QUERY: How was O=c1oc2cc(O)ccc2cc1-c1ccc(F)cc1 classified in this test?
RESULT: false (0)
